In this section, each of the compounds is paired with its reported pIC50.
Biological target: LOX from glycine max (soybean) (Glycine max)
Sequence (P08170 whole entry): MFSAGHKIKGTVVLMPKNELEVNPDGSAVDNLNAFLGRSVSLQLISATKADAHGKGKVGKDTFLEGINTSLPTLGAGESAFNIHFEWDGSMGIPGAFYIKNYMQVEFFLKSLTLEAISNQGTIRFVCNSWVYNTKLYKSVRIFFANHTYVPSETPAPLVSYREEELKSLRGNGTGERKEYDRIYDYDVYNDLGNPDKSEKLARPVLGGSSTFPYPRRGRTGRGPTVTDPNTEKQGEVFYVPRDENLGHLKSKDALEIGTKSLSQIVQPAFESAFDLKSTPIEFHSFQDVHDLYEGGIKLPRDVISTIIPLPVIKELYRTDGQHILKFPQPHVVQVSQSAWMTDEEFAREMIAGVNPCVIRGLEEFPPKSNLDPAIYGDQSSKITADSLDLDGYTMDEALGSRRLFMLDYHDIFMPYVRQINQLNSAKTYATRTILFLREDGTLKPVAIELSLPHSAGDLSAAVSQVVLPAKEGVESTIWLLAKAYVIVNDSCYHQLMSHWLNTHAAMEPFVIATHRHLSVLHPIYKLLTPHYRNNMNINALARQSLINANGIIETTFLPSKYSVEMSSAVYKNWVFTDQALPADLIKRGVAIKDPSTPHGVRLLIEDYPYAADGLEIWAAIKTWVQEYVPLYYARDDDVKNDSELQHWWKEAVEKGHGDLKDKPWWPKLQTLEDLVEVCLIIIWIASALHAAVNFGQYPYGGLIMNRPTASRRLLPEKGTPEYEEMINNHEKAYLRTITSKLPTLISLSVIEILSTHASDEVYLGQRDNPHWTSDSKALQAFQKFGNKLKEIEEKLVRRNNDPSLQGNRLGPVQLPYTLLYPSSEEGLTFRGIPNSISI
Bear in mind: pIC50 is minus log10 of a mol/L concentration; give just that figure.

[
  {
    "Compound": "CC=C(NC(=O)C(Cc1c[nH]c2ccccc12)NC(=O)C(C)c1ccc2cc(OC)ccc2c1)C(=O)O [Compound 8, Npx-L-Trp-Z-ΔAbu-OH]",
    "pIC50": 4.31
  }
]

Below: the item to evaluate.
Asked: // returns reported pIC50 for input COC(=O)C(=Cc1ccccc1)NC(=O)C(CC(=O)O)NC(=O)C(C)c1ccc2cc(OC)ccc2c1 [Compound 2, Npx-L-Asp-Z-ΔPhe-OMe]
Given back: 4.17

Origin of the recorded values: paper PMC7076388
